Entry source: patent US20260258115A1

- TARGET OF ASSAY: RSV prefusion F (preF), subtype A (respiratory syncytial virus, subtype A, UniProt P03420 26-513)
- TEST PROTOCOL: BLI, IgG
# maps each entry to its pKd
Friendly reminder that pKd comes from taking -log10 of the concentration in mol/L.

* ADI-20999 (antibody, V domains shown, also called Ab 250) VH: QVQLQESGPVLVKPSETLSLTCTVSGGSITSSAYYWGWIRQPPGKGLEWIGSVSYSGTTSYTPSLKSRVTISGDASKEQFSLNLRSVTAADTAVYYCARQTKAFGRRDYGMDVWGQGTTVTVSS VL: QPVLTQPPSVSAAPGQKVTISCSGSNSNIGSNFVSWYQQLPGTAPKLLIYENNKRPSGIPDRFSGSKSGPSATLGITGLQTEDEADYYCGTWDTGLSAHWVFGGGTKLTVL | 8.38

Fill in the blank: the reported pKd of ADI-20994 (antibody, V domains shown) VH: QVQLVQSGAEVKKPGASVKVSCKASGYTFSSNVIGWVRQAPGQGLEWMGWISTNNGNTKYGQKFQGRVTMTTDPSTSTAYMELRSLRSDDTAFYYCARESLGMGGFYFDYWGQGTLVTVSS VL: QPVLTQPPSVSVAPGQTARITCGGDNIGSKSVHWYQQKPGQAPVLVVYDDSDRPSGIPERFSGSNSGNTASLTISRVEAGDEADYCCQVWDSGSDLWVFG is ____. 10.05
